These data points were gathered from patent US8828985B2.

target: human 11β-HSD1 (Homo sapiens); conditions: read-out: Biological Test Example 2 IC50 Range; microsomes from CHO cells overexpressing human 11β-HSD1, SPA
pIC50: −log10 of the molar value.

{"Molecule": "N#Cc1ccc(N[C@@H]2CCN(C(=O)OC3C4CC5CC3CC(C(=O)NC3CC3)(C5)C4)C2)nc1 (single isomer, unassigned) [Example 118 Isomer 2]", "Assayed Target": "human 11β-HSD1 (Homo sapiens)", "pIC50": "< 7.00"}
{"Molecule": "N#Cc1ccc(N[C@@H]2CCN(C(=O)NC3CC4CCC(C3)N4C(N)=O)C2)nc1 (single isomer, unassigned) [Example 104 Isomer 1]", "Assayed Target": "human 11β-HSD1 (Homo sapiens)", "pIC50": "< 6.00"}
{"Molecule": "NC(=O)C12CC3CC(C1)C(OC(=O)N1CC[C@@H](Nc4ncccn4)C1)C(C3)C2 (single isomer, unassigned) [Example 62 Isomer 2]", "Assayed Target": "human 11β-HSD1 (Homo sapiens)", "pIC50": "> 7.00"}
{"Molecule": "N#Cc1ccc(N[C@@H]2CCN(C(=O)NC3CC4CCC(C3)N4C(N)=O)C2)nc1 (single isomer, unassigned) [Example 104 Isomer 2]", "Assayed Target": "human 11β-HSD1 (Homo sapiens)", "pIC50": "< 6.00"}

* * *

biological target: human 11β-HSD1 (Homo sapiens, UniProt P28845); test: biochemical; details: Biological Test Example 2 IC50 Range, microsomes from CHO cells overexpressing human 11β-HSD1, SPA
Sequence (P28845 whole entry): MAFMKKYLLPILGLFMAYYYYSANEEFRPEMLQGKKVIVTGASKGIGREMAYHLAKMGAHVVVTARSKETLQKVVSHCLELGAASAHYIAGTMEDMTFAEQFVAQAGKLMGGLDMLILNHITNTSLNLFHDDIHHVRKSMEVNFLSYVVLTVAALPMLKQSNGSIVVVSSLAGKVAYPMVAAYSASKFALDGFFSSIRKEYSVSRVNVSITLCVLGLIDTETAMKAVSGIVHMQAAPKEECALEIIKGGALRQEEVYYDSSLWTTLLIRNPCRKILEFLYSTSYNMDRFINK
Quick reference: IC50 of the listed items.

{"Molecule": "CC(C)(C)OC(=O)NCC1CN(C(=O)OC2C3CC4CC2CC(C(N)=O)(C4)C3)C1 (single isomer, unassigned) [Example 17 Isomer 1]", "IC50": "> 100 nM"}
{"Molecule": "CC(C)(C)OC(=O)N1CCCC12CCN(C(=O)NC1C3CC4CC(C3)CC1C4)C2 (centres unmarked) [Example 58]", "IC50": "< 100 nM"}
{"Molecule": "N#Cc1cccnc1N[C@H]1CCN(C(=O)O[C@H]2C3CC4CC2C[C@](C(N)=O)(C4)C3)C1 [Example 66]", "IC50": "< 100 nM"}
{"Molecule": "NC(=O)C12CC3CC(C1)C(OC(=O)N1CC[C@@H](NC(=O)OCc4ccccc4)C1)C(C3)C2 (single isomer, unassigned) [Example 25 Isomer 2]", "IC50": "< 100 nM"}
{"Molecule": "CS(=O)(=O)N1C2CCC1CC(NC(=O)N1CC[C@@H](Nc3ccc(C#N)cn3)C1)C2 (some centres unmarked) [Example 106]", "IC50": "> 100 nM"}
{"Molecule": "NC(=O)C12CC3CC(C1)C(OC(=O)N1CC[C@@H](Nc4ncccn4)C1)C(C3)C2 (single isomer, unassigned) [Example 62 Isomer 1]", "IC50": "< 100 nM"}
{"Molecule": "CC(C)(C)OC(=O)N1CCC2CN(C(=O)OC3C4CC5CC3CC(C(N)=O)(C5)C4)CC21 (single isomer, unassigned) [Example 23 Isomer 2]", "IC50": "< 100 nM"}
{"Molecule": "N#Cc1cc(Cl)cnc1N[C@@H]1CCN(C(=O)O[C@H]2C3CC4CC2C[C@](O)(C4)C3)C1 [Example 86]", "IC50": "< 100 nM"}
{"Molecule": "O=C(O)c1cnc(N[C@@H]2CCN(C(=O)O[C@H]3C4CC5CC3C[C@](O)(C5)C4)C2)nc1 [Example 108]", "IC50": "> 100 nM"}
{"Molecule": "N#Cc1ccc2nc(N[C@@H]3CCN(C(=O)O[C@H]4C5CC6CC4C[C@](O)(C6)C5)C3)ccc2c1 [Example 90]", "IC50": "< 100 nM"}
{"Molecule": "N#Cc1ccc(N[C@@H]2CCN(C(=O)OC3C4CC5CC3CC(C(=O)NC3CC3)(C5)C4)C2)nc1 (single isomer, unassigned) [Example 118 Isomer 1]", "IC50": "> 100 nM"}
{"Molecule": "CC(C)(C)OC(=O)NC1(C(F)(F)F)CCN(C(=O)O[C@H]2C3CC4CC2C[C@](C(N)=O)(C4)C3)C1 (some centres unmarked) [Example 113]", "IC50": "< 100 nM"}
{"Molecule": "CN(C)C(=O)c1cccnc1N[C@@H]1CCN(C(=O)O[C@H]2C3CC4CC2C[C@](O)(C4)C3)C1 [Example 89]", "IC50": "> 100 nM"}
{"Molecule": "N#Cc1ccc(N[C@@H]2CCN(C(=O)O[C@H]3C4CC5CC3C[C@](C(N)=O)(C5)C4)C2)nn1 [Example 116]", "IC50": "< 100 nM"}

* * *

molecular target: human 11β-HSD1 (Homo sapiens, UniProt P28845); experiment: biochemical; conditions: 1.5 h, read-out: Biological Test Example 2 Average % inhibition at 111 nm, at 111 nm
Metric Name: inhibition at 0.111 µM (%)

{"Molecule": "CC(C)(C)OC(=O)NC1(c2ccccc2)CCN(C(=O)NC2C3CC4CC(C3)CC2C4)C1 (centres unmarked)", "Unit": "%", "Experimental Result": 83.3}
{"Molecule": "N#Cc1ccc(N2CCC3CN(C(=O)O[C@H]4C5CC6CC4C[C@](C(N)=O)(C6)C5)CC32)nc1 (some centres unmarked)", "Unit": "%", "Experimental Result": 101}
{"Molecule": "CC(C)OC(=O)N[C@@H]1CCN(C(=O)NC2C3CC4CC(C3)CC2C4)C1 (some centres unmarked)", "Unit": "%", "Experimental Result": 74.6}
{"Molecule": "NC(=O)C1CC2CCCC(C1)C2OC(=O)N1CC[C@@H](Nc2ccc(C(F)(F)F)cn2)C1 (some centres unmarked)", "Unit": "%", "Experimental Result": 82.6}
{"Molecule": "N#Cc1ccc(N2CCCC23CCN(C(=O)O[C@H]2C4CC5CC2C[C@](C(N)=O)(C5)C4)C3)nc1 (some centres unmarked)", "Unit": "%", "Experimental Result": 97.7}

* * *

biological target: purified recombinant 11β-HSD1 (Homo sapiens, UniProt P28845); assay: Biological Test Example 1: inhibition of purified 11β-HSD1, Scintillation Proximity Assay; conditions: purified recombinant 11β-HSD1 (expressed in E. coli), SPA; read-out: Biological Test Example 1 IC50 Range
Sequence (P28845 whole entry, species assumed): as the sequence (P28845 whole entry) above
pIC50: −log10 of the molar value.
Metric Name: pIC50

{"Compound": "CC(C)(C)OC(=O)N[C@@H]1CCN(C(=O)NC2C3CC4CC(C3)CC2C4)C1 (some centres unmarked)", "Metric Name": "pIC50", "Experimental Result": "> 7.00"}
{"Compound": "CC(C)(C)OC(=O)NC1CCN(C(=O)NC2C3CC4CC(C3)CC2C4)CC1 (centres unmarked)", "Metric Name": "pIC50", "Experimental Result": "6.00 to 7.00"}
{"Compound": "CC(C)(C)OC(=O)N[C@H]1CCN(C(=O)NC2C3CC4CC(C3)CC2C4)C1 (some centres unmarked)", "Metric Name": "pIC50", "Experimental Result": "6.00 to 7.00"}
{"Compound": "CC(C)(C)OC(=O)NCC1CN(C(=O)OC2C3CC4CC(C3)CC2C4)C1 (centres unmarked)", "Metric Name": "pIC50", "Experimental Result": "> 7.00"}
{"Compound": "CC(C)(C)OC(=O)N[C@@H]1CCCN(C(=O)NC2C3CC4CC(C3)CC2C4)C1 (some centres unmarked)", "Metric Name": "pIC50", "Experimental Result": "> 7.00"}

* * *

target: UniProt:P28845; details: at 100 nm
Threshold rule: Biological Test Example 2 Average % inhibition at 100 nm greater than or equal to 90% is satisfied; below that, not satisfied.

{"Molecule": "NC(=O)C12CC3CC(C1)C(OC(=O)N1CC[C@@H](Nc4ncccn4)C1)C(C3)C2 (single isomer, unassigned) [Example 62 Isomer 1]", "Assigned Class": "not satisfied"}
{"Molecule": "CNC(=O)C12CC3CC(C1)C(OC(=O)N1CC[C@@H](Nc4ccc(C#N)cn4)C1)C(C3)C2 (single isomer, unassigned) [Example 114 Isomer 2]", "Assigned Class": "not satisfied"}
{"Molecule": "CNC(=O)C12CC3CC(C1)C(OC(=O)N1CC[C@@H](Nc4ccc(C#N)cn4)C1)C(C3)C2 (single isomer, unassigned) [Example 114 Isomer 1]", "Assigned Class": "not satisfied"}
{"Molecule": "CC(C)(C)OC(=O)NCC1CN(C(=O)OC2C3CC4CC2CC(C(N)=O)(C4)C3)C1 (single isomer, unassigned) [Example 17 Isomer 2]", "Assigned Class": "satisfied"}

* * *

molecular target: human 11β-HSD1 (Homo sapiens); assay: biochemical; settings: 1.5 h, read-out: Biological Test Example 2 Average % inhibition at 100 nm, at 100 nm
Metric Name: inhibition at 0.1 µM (%)

{"Compound": "N#Cc1cnc(N[C@@H]2CCN(C(=O)O[C@H]3C4CC5CC3C[C@](O)(C5)C4)C2)c(Cl)c1", "Metric Name": "inhibition at 0.1 µM", "Experimental Result": 100}
{"Compound": "N#Cc1cccnc1N[C@H]1CCN(C(=O)O[C@H]2C3CC4CC2C[C@](C(N)=O)(C4)C3)C1", "Metric Name": "inhibition at 0.1 µM", "Experimental Result": 95.5}
{"Compound": "CN(c1ncccc1C(F)(F)F)C1CCN(C(=O)O[C@H]2C3CC4CC2C[C@](C(N)=O)(C4)C3)C1 (stereo partly shown)", "Metric Name": "inhibition at 0.1 µM", "Experimental Result": 97.2}
{"Compound": "NC(=O)C12CC3CC(C1)C(OC(=O)N1CC[C@@H](Nc4ccc(F)cn4)C1)C(C3)C2 (stereo partly shown)", "Metric Name": "inhibition at 0.1 µM", "Experimental Result": 95.2}
{"Compound": "CC(C)(C)OC(=O)NC1(C(F)(F)F)CCN(C(=O)O[C@H]2C3CC4CC2C[C@](C(N)=O)(C4)C3)C1 (stereo partly shown)", "Metric Name": "inhibition at 0.1 µM", "Experimental Result": 92}
{"Compound": "CC(C)(C)OC(=O)NC1(c2ccccc2)CCN(C(=O)OC2C3CC4CC(C3)CC2C4)C1 (stereo not shown)", "Metric Name": "inhibition at 0.1 µM", "Experimental Result": 87.7}
{"Compound": "NC(=O)c1cnc(N[C@@H]2CCN(C(=O)O[C@H]3C4CC5CC3C[C@](O)(C5)C4)C2)c(Cl)c1", "Metric Name": "inhibition at 0.1 µM", "Experimental Result": 60.2}
